- System: SK-MEL-2
- ASSAY_NOTES: NCI tumour cell line growth inhibition, 48 h
Activity calls are given as the source filed them. Rule as the data show it: active = GI50 up to about 1.1 µM and inactive = higher.
Reported GI50 values for the following molecules.
OBSERVATION_TYPE: GI50

[
  {
    "MOLECULE": "O=S1(=O)OCCOS(=O)(=O)C1(I)I",
    "OBSERVED_MEASUREMENT": "22 µM (inactive)"
  },
  {
    "MOLECULE": "Cc1ncc([N+](=O)[O-])n1CCNS(=O)(=O)CCCn1ccnc1[N+](=O)[O-]",
    "OBSERVED_MEASUREMENT": "> 100 µM (inactive)"
  },
  {
    "MOLECULE": "Cc1nc2nnc(C)n2c2c1C(=O)Nc1ccccc1N2",
    "OBSERVED_MEASUREMENT": "> 100 µM (inactive)"
  },
  {
    "MOLECULE": "CC1(O)CC2(O)C=CC3=C(C(=O)c4cccc(O)c4C3=O)C2(O)C(=O)C1O (stereo unspecified)",
    "OBSERVED_MEASUREMENT": "4.18 µM (inactive)"
  },
  {
    "MOLECULE": "COc1cccc2c1OC1c3ccccc3OCC1(O)C2 (stereo unspecified)",
    "OBSERVED_MEASUREMENT": "> 100 µM (inactive)"
  },
  {
    "MOLECULE": "O=C(CCc1nnc2s/c(=C\\c3ccc4c(c3)OCO4)c(=O)n12)Nc1cc(Cl)ccc1Cl",
    "OBSERVED_MEASUREMENT": "> 100 µM (inactive)"
  }
]
